Below are Ki values recorded for DNA-PK (Homo sapiens, UniProt P78527).

Identify the measured Ki of N#Cc1ccnc(N[C@H]2CC[C@@H](Oc3cc(N4CCOCC4)cc4nccnc34)CC2)c1 [Compound 84] for DNA-PK (Homo sapiens, UniProt P78527).
< 100 nM

Same lookup for N#Cc1cc(N[C@H]2CC[C@@H](Oc3cc(N4CCOCC4)cc4nccnc34)CC2)ncn1 [Compound 234] , please.
< 100 nM

Same lookup for CC(C)(CO)Nc1ccnc(N[C@H]2CC[C@@H](Oc3cc(N4CCOCC4)cc4nccnc34)CC2)n1 [Compound 264] , please.
< 100 nM

Same lookup for O[C@H](c1cnc(N[C@H]2CC[C@@H](Oc3cc(N4CCOCC4)cc4nccnc34)CC2)nc1)C(F)(F)F [Compound 235] , please.
< 100 nM

Same lookup for Fc1cnc(N[C@H]2CC[C@@H](Oc3cc(N4CCOCC4)cc4nccnc34)CC2)nc1 [Compound 37] , please.
< 100 nM

Same lookup for Cc1ccc(N[C@H]2CC[C@@H](Oc3cc(N4CCOCC4)cc4nccnc34)CC2)nn1 [Compound 450] , please.
< 100 nM

Same lookup for c1cncc(N[C@H]2CC[C@@H](Oc3cc(N4CCOCC4)cc4nccnc34)CC2)c1 [Compound 272] , please.
< 100 nM

Same lookup for Cc1cnc(N[C@H]2CC[C@@H](Oc3cc(N4CCOCC4)cc4nccnc34)CC2)nc1N1CCCCC1 [Compound 567] , please.
< 100 nM

Same lookup for Nc1ccc(N[C@H]2CC[C@@H](Oc3cc(N4CCOCC4)cc4nccnc34)CC2)nc1 [Compound 197] , please.
< 100 nM

Same lookup for OCc1cnc(N[C@H]2CC[C@@H](Oc3cc(N4CCOCC4)cc4nccnc34)CC2)nc1 [Compound 94] , please.
< 100 nM

Same lookup for O=C(N[C@H]1CC[C@@H](Oc2cc(N3CCOCC3)cc3nccnc23)CC1)C1CC1 [Compound 61] , please.
< 100 nM

Same lookup for c1cnc(N[C@H]2CC[C@@H](Oc3cc(N4CCOCC4)cc4nccnc34)CC2)nc1 [Compound 28] , please.
< 100 nM

Same lookup for CNc1cc(N[C@H]2CC[C@@H](Oc3cc(N4CCOCC4)cc4nccnc34)CC2)ncn1 [Compound 205] , please.
< 100 nM

Same lookup for c1cnc(N[C@H]2CC[C@@H](Nc3cc(N4CCOCC4)cc4nccnc34)CC2)nc1 [Compound 18] , please.
< 100 nM

Same lookup for NC(=O)c1ccc(N[C@H]2CC[C@@H](Oc3cc(N4CCOCC4)cc4nccnc34)CC2)nc1 [Compound 140] , please.
< 100 nM

Same lookup for Fc1ccnc(N[C@H]2CC[C@@H](Oc3cc(N4CCOCC4)cc4nccnc34)CC2)n1 [Compound 49] , please.
< 100 nM

---

Below are Ki values recorded for DNA-PK (Homo sapiens, UniProt P78527).

Identify the measured Ki of COC(=O)c1cccnc1N[C@H]1CC[C@@H](Oc2cc(N3CCOCC3)cc3nccnc23)CC1 for DNA-PK (Homo sapiens, UniProt P78527).
< 100 nM

Same lookup for CN(C)C(=O)c1ccc(N[C@H]2CC[C@@H](Oc3cc(N4CCOCC4)cc4nccnc34)CC2)nc1 , please.
< 100 nM

Same lookup for CC(C)(O)c1cnc(N[C@H]2CC[C@@H](Oc3cc(N4CCOCC4)cc4nccnc34)CC2)nc1 , please.
< 100 nM

Same lookup for N#Cc1cccc(N[C@H]2CC[C@@H](Oc3cc(N4CCOCC4)cc4nccnc34)CC2)n1 , please.
< 100 nM

Same lookup for N#Cc1cnc(N[C@H]2CC[C@@H](Oc3cc(N4CCOCC4)cc4nccnc34)CC2)nc1 , please.
< 100 nM

Same lookup for CCOCCOc1cnc(N[C@H]2CC[C@@H](Oc3cc(N4CCOCC4)cc4nccnc34)CC2)nc1 , please.
< 100 nM

Same lookup for COC(=O)c1cc(N[C@H]2CC[C@@H](Oc3cc(N4CCOCC4)cc4nccnc34)CC2)ncc1OC(C)(C)C , please.
< 100 nM

Same lookup for COc1nc(C)nc(N[C@H]2CC[C@@H](Oc3cc(N4CCOCC4)cc4nccnc34)CC2)n1 , please.
< 100 nM

Same lookup for N#Cc1ccc(N[C@H]2CC[C@@H](Oc3cc(N4CCOCC4)cc4nccnc34)CC2)nn1 , please.
< 100 nM

Same lookup for CN1CCN(c2ncc(C(=O)N[C@H]3CC[C@@H](Oc4cc(N5CCOCC5)cc5nccnc45)CC3)cn2)CC1 , please.
< 100 nM

Same lookup for CNC(=O)c1cnc(N[C@H]2CC[C@@H](Oc3cc(N4CCOCC4)cc4nccnc34)CC2)nc1 , please.
< 100 nM

Same lookup for N#Cc1ccc(N[C@H]2CC[C@@H](Oc3cc(N4CCOCC4)cc4nccnc34)CC2)nc1 , please.
< 100 nM

Same lookup for CCCCc1cnc2cc(N3CCOCC3)cc(O[C@H]3CC[C@@H](Nc4ncc(Br)cn4)CC3)c2n1 , please.
< 100 nM

Same lookup for c1cnc(N[C@H]2CC[C@@H](Oc3cc(N4C[C@H]5CC[C@@H](C4)O5)cc4nccnc34)CC2)nc1 , please.
< 100 nM

Same lookup for c1ncc(N[C@H]2CC[C@@H](Nc3cc(N4CCOCC4)cc4nccnc34)CC2)cn1 , please.
< 100 nM
